test system: Leukemia cancer cell lines
RECORDED ENDPOINT: GI50 (nM)
Numbers only, in nM.

Worked examples, 2 compounds total:
INSERT INTO results (compound, unit_text, reported_value) VALUES
  ('COc1cc2c(cc1OCCCCn1c(-c3cccs3)nc3ccccc31)N=C[C@@H]1CCCN1C2=O', 'nM', 1000),
  ('COc1cc2c(cc1OCCCCCn1c(-c3ccc(OCc4ccccc4)cc3)nc3ccc(N4CCOCC4)cc31)N=C[C@@H]1CCCN1C2=O [Compound 11c]', 'nM', 603);

Tell me reported GI50 for COc1cc2c(cc1OCCCn1c(-c3ccccn3)nc3ccccc31)N=C[C@@H]1CCCN1C2=O [Compound 11a] , tested with Leukemia cancer cell lines.
3090

* * *

Measurement record for Breast cancer cell lines; quantity recorded: GI50.
One number for each entry, in nM.

INSERT INTO measurements (molecule, reported_value) VALUES
  ('COc1cc2c(cc1OCCCn1c(-c3ccccn3)nc3ccccc31)N=C[C@@H]1CCCN1C2=O [Compound 11a]', 1050),
  ('COc1cc2c(cc1OCCCCCn1c(-c3ccc(OCc4ccccc4)cc3)nc3ccc(N4CCOCC4)cc31)N=C[C@@H]1CCCN1C2=O [Compound 11c]', 1550);

Which GI50 reading was recorded for the molecule COc1cc2c(cc1OCCCCn1c(-c3cccs3)nc3ccccc31)N=C[C@@H]1CCCN1C2=O [Compound 8e] ?
912

* * *

The following molecules have recorded GI50 on Non-small-cell-lung cancer cell lines.
Answers are plain numbers, in nM.

Below, each entry is followed by its recorded GI50 result.
INSERT INTO measurements (molecule, subject_of_test, reported_value) VALUES
  ('COc1cc2c(cc1OCCCCn1c(-c3cccs3)nc3ccccc31)N=C[C@@H]1CCCN1C2=O', 'Non-small-cell-lung cancer cell lines', 2090),
  ('COc1cc2c(cc1OCCCn1c(-c3ccccn3)nc3ccccc31)N=C[C@@H]1CCCN1C2=O [Compound 11a]', 'Non-small-cell-lung cancer cell lines', 1580);

Notebook entry, Non-small-cell-lung cancer cell lines assay: GI50 of COc1cc2c(cc1OCCCCCn1c(-c3ccc(OCc4ccccc4)cc3)nc3ccc(N4CCOCC4)cc31)N=C[C@@H]1CCCN1C2=O [Compound 11c] = ?
1950

* * *

tested on: sixty human tumour cells; test: NCI in vitro anticancer screen (SRB, 48 h), mean graph midpoints over all cell lines; format: cell-based; conditions: 48 h continuous drug exposure, SRB assay; 50% cell death
RECORDED ENDPOINT: Log10LC50 mean graph midpoint (MG_MID)
Give bare numbers.

INSERT INTO assay_data (compound, subject_of_test, recorded_endpoint, reported_value) VALUES
  ('COc1cc2c(cc1OCCCCCn1c(-c3ccc(OCc4ccccc4)cc3)nc3ccc(N4CCOCC4)cc31)N=C[C@@H]1CCCN1C2=O [Compound 11c]', 'sixty human tumour cells', 'Log10LC50 mean graph midpoint (MG_MID)', '−4.24'),
  ('COc1cc2c(cc1OCCCCCn1c(-c3ccco3)nc3ccccc31)N=C[C@@H]1CCCN1C2=O [Compound 8c]', 'sixty human tumour cells', 'Log10LC50 mean graph midpoint (MG_MID)', '−4.60'),
  ('COc1cc2c(cc1OCCCCn1c(-c3cccs3)nc3ccccc31)N=C[C@@H]1CCCN1C2=O [Compound 8e]', 'sixty human tumour cells', 'Log10LC50 mean graph midpoint (MG_MID)', '−4.51'),
  ('COC(=O)c1ccc2nc(-c3cn(C)c4ccccc34)n(CCCCOc3cc4c(cc3OC)C(=O)N3CCC[C@H]3C=N4)c2c1 [Compound 14]', 'sixty human tumour cells', 'Log10LC50 mean graph midpoint (MG_MID)', '−4.92');

Query compound follows.
Can you look up the measured Log10LC50 mean graph midpoint (MG_MID) of COc1cc2c(cc1OCCCn1c(-c3ccccn3)nc3ccccc31)N=C[C@@H]1CCCN1C2=O [Compound 11a] for me?
−4.42
